The reported numbers originate from patent US9724362B2.

assay: Drug solubility; assay type: physicochemical; conditions: MFD solution; read-out: solubility in MFD solution
Test readout: solubility

## Input Item under review: Cc1ccc(-c2cc(C(F)(F)F)nn2-c2ccc(S(N)(=O)=O)cc2)cc1 . Reported solubility?
## Output ~40 µg/mL

---

assay: Drug solubility; assay type: physicochemical; details: water; read-out: solubility in water
Test readout: solubility

## Input Reported solubility for CCOC(=O)N1c2ccc(C(F)(F)F)cc2[C@@H](N(Cc2cc(C(F)(F)F)cc(C(F)(F)F)c2)C(=O)OC)C[C@H]1CC : what is it?
## Output < 0.1 µg/mL
